In this section we review reported AUC at 24 h values for a set of compounds.
experiment: PO pharmacokinetic study, oral exposure (Example B3); format: in vivo; settings: blood, po; 10 mg/kg gavage, 24 hrs

compound: COCc1cc(Cl)cc(C(=O)Nc2nc3ccc(C(F)(F)F)cc3s2)c1O
AUC at 24 h: > 120000 ng·h/mL
--
compound: Cc1cc(Cl)cc(C(=O)Nc2nc3c(CN4CCN(C)CC4)cc(C(F)(F)F)cc3s2)c1O
AUC at 24 h: 30000 to 60000 ng·h/mL
--
compound: COC1CCN(Cc2cc(Cl)cc(C(=O)Nc3nc4ccc(C(F)(F)F)cc4s3)c2O)C1 (centres unmarked)
AUC at 24 h: 30000 to 60000 ng·h/mL
--
compound: O=C(Nc1nc2ccc(C(F)(F)F)cc2s1)c1cc(Cl)cc(C2CCOC2)c1O (centres unmarked)
AUC at 24 h: > 120000 ng·h/mL
--
compound: O=C(Nc1nc2ccc(C(F)(F)F)cc2s1)c1cc(Cl)cc(CN2CCCC2)c1O
AUC at 24 h: 10000 to 30000 ng·h/mL
--
compound: Cl.O=C(Nc1nc2ccc(C(F)(F)F)cc2s1)c1cc(Cl)cc(CCN2CCOCC2)c1O
AUC at 24 h: 10000 to 30000 ng·h/mL
--
compound: C[C@@H]1CN(Cc2cc(Cl)cc(C(=O)Nc3nc4ccc(C(F)(F)F)cc4s3)c2O)C[C@H](C)O1.Cl
AUC at 24 h: 60000 to 120000 ng·h/mL
--
compound: COCCOCc1cc(C(F)(F)F)cc2sc(NC(=O)c3cc(Cl)cc(CN4C[C@@H](C)O[C@@H](C)C4)c3O)nc12
AUC at 24 h: 10000 to 30000 ng·h/mL

---

assay: PO pharmacokinetic study, oral exposure (Example B3); format: in vivo; conditions: blood, po; 10 mg/kg gavage, 24 hrs
property label: AUC at 24 h

compound: COCCOCc1cc(Cl)cc(C(=O)Nc2nc3ccc(C(F)(F)F)cc3s2)c1O
observed result: > 120000 ng·h/mL

compound: O=C(Nc1nc2ccc(C(F)(F)F)cc2s1)c1cc(Cl)cc(C2CCCO2)c1O (centres unmarked)
observed result: > 120000 ng·h/mL

compound: COCCN(CCOC)Cc1cc(Cl)cc(C(=O)Nc2nc3c(COC)cc(C(F)(F)F)cc3s2)c1O
observed result: 10000 to 30000 ng·h/mL

compound: COCCOCc1cc(C(F)(F)F)cc2sc(NC(=O)c3cc(Cl)cc(CN4CCCCC4)c3O)nc12
observed result: 30000 to 60000 ng·h/mL

compound: COCCN(CCOC)Cc1cc(Cl)cc(C(=O)Nc2nc3ccc(C(F)(F)F)cc3s2)c1O
observed result: 10000 to 30000 ng·h/mL

compound: Cl.O=C(Nc1nc2ccc(C(F)(F)F)cc2s1)c1cc(Cl)cc(CN2CCOCC2)c1O
observed result: 10000 to 30000 ng·h/mL

compound: O=C(Nc1nc2ccc(C(F)(F)F)cc2s1)c1cc(Cl)cc(CN2CCC2)c1O
observed result: 30000 to 60000 ng·h/mL

compound: COCCOCc1cc(C(F)(F)F)cc2sc(NC(=O)c3cc(Cl)cc(C)c3O)nc12
observed result: 30000 to 60000 ng·h/mL

compound: O=C(Nc1nc2ccc(C(F)(F)F)cc2s1)c1cc(Cl)cc(CN2CCCCC2)c1O
observed result: 10000 to 30000 ng·h/mL

compound: COCCOCc1cc(C(F)(F)F)cc2sc(NC(=O)c3cc(Cl)cc(CN4CCOCC4)c3O)nc12
observed result: 60000 to 120000 ng·h/mL

compound: COCCN(C)Cc1cc(Cl)cc(C(=O)Nc2nc3ccc(C(F)(F)F)cc3s2)c1O
observed result: 10000 to 30000 ng·h/mL

compound: COc1cc(Cl)cc(C(=O)Nc2nc3ccc(C(F)(F)F)cc3s2)c1O
observed result: 10000 to 30000 ng·h/mL

compound: COCCOCc1cc(Cl)cc(C(=O)Nc2ccc(C(F)(F)F)cc2Cl)c1O
observed result: 30000 to 60000 ng·h/mL

compound: COCc1cc(C(F)(F)F)cc2sc(NC(=O)c3cc(Cl)cc(C)c3O)nc12
observed result: 30000 to 60000 ng·h/mL
